molecular target: Mitogen-activated protein kinase 10 (Homo sapiens, UniProt P53779); experiment: Inhibition of JNK3 (unknown origin) using biotinylated ATF2 by HTRF method
Sequence (P53779 whole entry): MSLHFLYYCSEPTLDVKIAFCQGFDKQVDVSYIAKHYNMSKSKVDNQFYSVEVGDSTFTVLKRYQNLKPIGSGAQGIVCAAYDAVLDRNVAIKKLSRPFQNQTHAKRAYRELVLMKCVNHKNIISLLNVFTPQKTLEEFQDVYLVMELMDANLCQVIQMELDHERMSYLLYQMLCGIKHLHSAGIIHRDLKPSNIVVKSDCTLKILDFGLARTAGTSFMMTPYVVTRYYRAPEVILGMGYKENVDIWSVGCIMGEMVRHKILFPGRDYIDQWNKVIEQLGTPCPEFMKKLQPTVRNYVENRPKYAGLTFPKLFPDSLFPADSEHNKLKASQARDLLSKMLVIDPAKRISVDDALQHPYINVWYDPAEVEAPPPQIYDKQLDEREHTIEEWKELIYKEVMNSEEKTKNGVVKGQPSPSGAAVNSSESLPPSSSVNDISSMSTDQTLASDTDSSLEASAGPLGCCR
# IC50 per record follows
All answers are understood in nM, so give the number only.

Ask: Could you share which IC50 value was measured for CNC(=O)c1ccccc1Nc1cc(Nc2ccc(N3CCOCC3)cc2OC)ncc1F ?
Result: 320

Ask: Let us now turn to COc1cc(N2CCOCC2)ccc1Nc1cc(Nc2ccccc2C(=O)N(C)C)c(C(F)(F)F)cn1
Result: 1000

----------
molecular target: Mitogen-activated protein kinase 10 (Homo sapiens); assay: Inhibition of JNK3 (unknown origin) using biotinylated ATF2 by HTRF method
pIC50: −log10 of the molar value.
Decision: pIC50 compared against 9; not below it gives True, below it gives False.

Ask: Given the entry O=C(NCc1ccccc1)c1ccccc1Nc1ccnc(Nc2ccc(N3CCOCC3)cc2)c1 , answer whether its pIC50 meets or surpasses 9.
Result: False

Ask: Let us now turn to COc1ccc(Nc2ncc(Cl)c(Nc3ccccc3C(N)=O)n2)cc1
Result: True

Ask: Let us now turn to COc1cc(Nc2ncc(Cl)c(Nc3ccccc3C(N)=O)n2)ccc1N1CCOCC1
Result: True

Ask: Let us now turn to O=C(Nc1ccccc1)c1ccccc1Nc1ccnc(Nc2ccc(N3CCOCC3)cc2)c1
Result: False

Ask: Let us now turn to NC(=O)c1ccccc1Nc1nc(Nc2ccc(N3CCCC3=O)cc2)ncc1Cl
Result: True

Ask: Let us now turn to O=C1NCc2cccc(Nc3ccnc(Nc4ccc(N5CCOCC5)cc4)c3)c21
Result: False
